# Tested on: HepG2
# ASSAY PROTOCOL: Induction of apoptosis in human HepG2 cells assessed as necrotic cells at 1 ug/ml after 24 hrs by Annexin V/propidium iodide staining based flow cytometry (reference value: 1.86%)
# Format: functional
Known Activity of a selection of compounds
Value expressed in %; do not type the unit.

Recorded Activity, per entry:
{"CHEMICAL SMILES": "CC(C)c1ccc2c(c1)CC[C@H]1[C@](C)(C/N=C/c3ncc[nH]3)CCC[C@]21C", "UOM": "%", "Activity": 0.25}
{"CHEMICAL SMILES": "COc1cccc2c1C(=O)c1c(O)c3c(c(O)c1C2=O)C[C@@](O)(C(=O)CO)C[C@@H]3O[C@H]1C[C@H](N)[C@H](O)[C@H](C)O1", "UOM": "%", "Activity": 0.35}
{"CHEMICAL SMILES": "CC(C)c1ccc2c(c1)CC[C@H]1[C@](C)(CN)CCC[C@]21C", "UOM": "%", "Activity": 0.24}

// next entry
Looking up CC(C)c1ccc2c(c1)CC[C@H]1[C@](C)(C/N=C/c3c[nH]cn3)CCC[C@]21C , I see its Activity listed as 0.23

* * *

# Tested on: HepG2
# ASSAY PROTOCOL: Induction of apoptosis in human HepG2 cells assessed as late apoptotic cells at 1 ug/ml after 24 hrs by Annexin V/propidium iodide staining based flow cytometry (reference value: 7.09%)
# Format: functional
PARAMETER: Activity (%)
Answer with a number only, understood to be in %.

{"MOLECULE": "CC(C)c1ccc2c(c1)CC[C@H]1[C@](C)(C/N=C/c3ncc[nH]3)CCC[C@]21C", "UOM": "%", "Activity": 10.13}
{"MOLECULE": "CC(C)c1ccc2c(c1)CC[C@H]1[C@](C)(CN)CCC[C@]21C", "UOM": "%", "Activity": 22.98}
{"MOLECULE": "CC(C)c1ccc2c(c1)CC[C@H]1[C@](C)(C/N=C/c3c[nH]cn3)CCC[C@]21C", "UOM": "%", "Activity": 6.39}

Now consider the entry below.
Record summary for COc1cccc2c1C(=O)c1c(O)c3c(c(O)c1C2=O)C[C@@](O)(C(=O)CO)C[C@@H]3O[C@H]1C[C@H](N)[C@H](O)[C@H](C)O1 [DOXORUBICIN] : reported Activity = 12.6
